Provide the recorded IC50 for the entries that follow.
- assay-info: In vitro inhibition of KB cell growth
- Assay type: functional, cell-based
- condition-notes: Homo sapiens
Numbers only, in µg/mL.

Use these answered entries as a reference point.
compound	unit-of-measure	result-number
COc1ccc(C(c2ccc(C(C)C)cc(=O)c2O)c2ccc(C(C)C)cc(=O)c2O)cc1	µg/mL	0.5
COc1ccc(C(c2ccc(C(C)C)cc(=O)c2OC)c2ccc(C(C)C)cc(OC)c2=O)cc1 (stereo not given)	µg/mL	5.4

Record IC50 for all entries; do not skip any.
1. C/N=c1\cc(C(C)C)ccc(C(c2ccc(OC)cc2)c2ccc(C(C)C)cc(NC)c2=O)c1O (stereo not given)
2. CCOC(c1ccc(OC)cc1)c1ccc(C(C)C)cc(=O)c1O (stereo not given)
3. COc1ccc(C(c2ccc(C(C)C)cc(S)c2=O)c2ccc(C(C)C)cc(S)c2=O)cc1

Ans.
100
0.5
5.3

---

- assay-info: In vitro inhibition of KB cell growth
- Assay type: functional, cell-based
- condition-notes: Homo sapiens
Provide the recorded IC50 for the entries that follow.
One number for each entry, in µg/mL.

compound	IC50, µg/mL
CNc1cc(C(C)C)ccc(C(c2ccc(OC)cc2)c2ccc(C(C)C)cc(=O)c2O)c1=O (stereo not drawn)	50
COc1ccc(C(c2ccc(C(C)C)cc(OC)c2=O)c2ccc(C(C)C)cc(OC)c2=O)cc1	23.5

Please find the next compound below.
Qu. Query (compound): COc1ccc(C(c2ccc(C(C)C)cc(=O)c2O)c2ccc(C(C)C)cc(OC)c2=O)cc1 (stereo not drawn) ; field requested: IC50
Ans. 1.7
